EXPERIMENT DESCRIPTION: clinical
DETAILS: human, in vivo, 450 mg, single dose, cycle 1 day 1 of dose-expansion phase, 450 mg (n=10), mean; read-out: Cmax
PARAMETER MEASURED: Cmax (ng/mL)
Numbers only, in ng/mL.

Given item COc1cc(N2CCC(N3CCN(C)CC3)CC2)ccc1Nc1nc2c(c(Nc3ccccc3S(=O)(=O)NC(C)C)n1)CCN2 , the value recorded as its Cmax is 328

====

EXPERIMENT DESCRIPTION: clinical
DETAILS: human, in vivo, cycle 1 day 28 of dose-escalation phase, 450 mg (n=3), mean; read-out: T1/2 (converted)
PARAMETER MEASURED: half-life (h)
One number for each entry, in h.

Given item COc1cc(N2CCC(N3CCN(C)CC3)CC2)ccc1Nc1nc2c(c(Nc3ccccc3S(=O)(=O)NC(C)C)n1)CCN2 [Conteltinib] , the value recorded as its half-life is 48.6

====

EXPERIMENT DESCRIPTION: clinical
DETAILS: human, in vivo, 600 mg, single dose, cycle 1 day 1 of dose-expansion phase, 600 mg (n=10), mean; read-out: T1/2 (converted)
PARAMETER MEASURED: half-life
Number first, unit second.

Given item COc1cc(N2CCC(N3CCN(C)CC3)CC2)ccc1Nc1nc2c(c(Nc3ccccc3S(=O)(=O)NC(C)C)n1)CCN2 , the value recorded as its half-life is 16.7 h

====

EXPERIMENT DESCRIPTION: clinical
DETAILS: human, in vivo, single dose, PK lead-in phase of dose-escalation phase, 450 mg (n=4), mean; read-out: Tmax
Description: For single-dose PK parameters, plasma samples were taken at pre-dose and 0.5 h, 1 h, 2 h, 3 h, 4 h, 6 h, 8 h, 12 h, 24 h, 48 h, 72 h, 96 h, 120 h, 144 h, and 168 h post-dose in PK lead-in phase of dose-escalation phase, and plasma samples were also taken at pre-dose and 0.5 h, 1 h, 2 h, 3 h, 4 h, 6 h, 8 h, 12 h, and 24 h post-dose in cycle 1 day 1 of dose-expansion phase. […]
PARAMETER MEASURED: Tmax (h)
Give bare numbers, in h.

Given item COc1cc(N2CCC(N3CCN(C)CC3)CC2)ccc1Nc1nc2c(c(Nc3ccccc3S(=O)(=O)NC(C)C)n1)CCN2 , the value recorded as its Tmax is 3.3

====

EXPERIMENT DESCRIPTION: clinical
DETAILS: human, in vivo, 100 mg, single dose, cycle 1 day 1 of dose-expansion phase, 100 mg (n=5), mean; read-out: Tmax
PARAMETER MEASURED: Tmax (h)
Answers are plain numbers, in h.

Given item COc1cc(N2CCC(N3CCN(C)CC3)CC2)ccc1Nc1nc2c(c(Nc3ccccc3S(=O)(=O)NC(C)C)n1)CCN2 , the value recorded as its Tmax is 2.7

====

EXPERIMENT DESCRIPTION: clinical
DETAILS: human, in vivo, cycle 1 day 28 of dose-escalation phase, 800 mg (n=2), mean; read-out: T1/2 (converted)
PARAMETER MEASURED: half-life (h)
One number for each entry, in h.

Given item COc1cc(N2CCC(N3CCN(C)CC3)CC2)ccc1Nc1nc2c(c(Nc3ccccc3S(=O)(=O)NC(C)C)n1)CCN2 , the value recorded as its half-life is 52.7

====

EXPERIMENT DESCRIPTION: clinical
DETAILS: human, in vivo, single dose, PK lead-in phase of dose-escalation phase, 300 mg (n=3), mean; read-out: Cmax
PARAMETER MEASURED: Cmax (ng/mL)
Give bare numbers, in ng/mL.

Given item COc1cc(N2CCC(N3CCN(C)CC3)CC2)ccc1Nc1nc2c(c(Nc3ccccc3S(=O)(=O)NC(C)C)n1)CCN2 , the value recorded as its Cmax is 246

====

EXPERIMENT DESCRIPTION: clinical
DETAILS: human, in vivo, 100 mg, single dose, cycle 1 day 1 of dose-expansion phase, 100 mg (n=5), mean; read-out: Cmax
PARAMETER MEASURED: Cmax (ng/mL)
Numbers only, in ng/mL.

Given item COc1cc(N2CCC(N3CCN(C)CC3)CC2)ccc1Nc1nc2c(c(Nc3ccccc3S(=O)(=O)NC(C)C)n1)CCN2 [Conteltinib] , the value recorded as its Cmax is 85.5

====

EXPERIMENT DESCRIPTION: clinical
DETAILS: human, in vivo; single dose, cycle 1 day 1 of dose-expansion phase, 450 mg (n=10), mean; read-out: T1/2 (converted)
Procedure: For single-dose PK parameters, plasma samples were taken at pre-dose and 0.5 h, 1 h, 2 h, 3 h, 4 h, 6 h, 8 h, 12 h, 24 h, 48 h, 72 h, 96 h, 120 h, 144 h, and 168 h post-dose in PK lead-in phase of dose-escalation phase, and plasma samples were also taken at pre-dose and 0.5 h, 1 h, 2 h, 3 h, 4 h, 6 h, 8 h, 12 h, and 24 h post-dose in cycle 1 day 1 of dose-expansion phase. […]
PARAMETER MEASURED: half-life (h)
Numbers only, in h.

Given item COc1cc(N2CCC(N3CCN(C)CC3)CC2)ccc1Nc1nc2c(c(Nc3ccccc3S(=O)(=O)NC(C)C)n1)CCN2 [Conteltinib] , the value recorded as its half-life is 23.4

====

EXPERIMENT DESCRIPTION: clinical
DETAILS: human, in vivo, 100 mg, Cmax
PARAMETER MEASURED: Cmax (ng/mL)
Numbers only, in ng/mL.

Given item COc1cc(N2CCC(N3CCN(C)CC3)CC2)ccc1Nc1nc2c(c(Nc3ccccc3S(=O)(=O)NC(C)C)n1)CCN2 , the value recorded as its Cmax is 123

====

EXPERIMENT DESCRIPTION: clinical
DETAILS: human, in vivo, 450 mg, single dose, cycle 1 day 1 of dose-expansion phase, 450 mg (n=10), mean; read-out: AUCINF_obs
PARAMETER MEASURED: AUC(0-inf) (ng·h/mL)
One number for each entry, in ng·h/mL.

Given item COc1cc(N2CCC(N3CCN(C)CC3)CC2)ccc1Nc1nc2c(c(Nc3ccccc3S(=O)(=O)NC(C)C)n1)CCN2 , the value recorded as its AUC(0-inf) is 6340

====

EXPERIMENT DESCRIPTION: clinical
DETAILS: human, in vivo, cycle 1 day 28 of dose-escalation phase, 100 mg (n=3), mean; read-out: AUCINF_obs
PARAMETER MEASURED: AUC(0-inf)
Number first, unit second.

Given item COc1cc(N2CCC(N3CCN(C)CC3)CC2)ccc1Nc1nc2c(c(Nc3ccccc3S(=O)(=O)NC(C)C)n1)CCN2 , the value recorded as its AUC(0-inf) is 6110 ng·h/mL

====

MEASUREMENT TARGET: ALK R1275Q (Homo sapiens, UniProt Q9UM73, R1275Q)
Sequence (Q9UM73 19-1620 R1275Q): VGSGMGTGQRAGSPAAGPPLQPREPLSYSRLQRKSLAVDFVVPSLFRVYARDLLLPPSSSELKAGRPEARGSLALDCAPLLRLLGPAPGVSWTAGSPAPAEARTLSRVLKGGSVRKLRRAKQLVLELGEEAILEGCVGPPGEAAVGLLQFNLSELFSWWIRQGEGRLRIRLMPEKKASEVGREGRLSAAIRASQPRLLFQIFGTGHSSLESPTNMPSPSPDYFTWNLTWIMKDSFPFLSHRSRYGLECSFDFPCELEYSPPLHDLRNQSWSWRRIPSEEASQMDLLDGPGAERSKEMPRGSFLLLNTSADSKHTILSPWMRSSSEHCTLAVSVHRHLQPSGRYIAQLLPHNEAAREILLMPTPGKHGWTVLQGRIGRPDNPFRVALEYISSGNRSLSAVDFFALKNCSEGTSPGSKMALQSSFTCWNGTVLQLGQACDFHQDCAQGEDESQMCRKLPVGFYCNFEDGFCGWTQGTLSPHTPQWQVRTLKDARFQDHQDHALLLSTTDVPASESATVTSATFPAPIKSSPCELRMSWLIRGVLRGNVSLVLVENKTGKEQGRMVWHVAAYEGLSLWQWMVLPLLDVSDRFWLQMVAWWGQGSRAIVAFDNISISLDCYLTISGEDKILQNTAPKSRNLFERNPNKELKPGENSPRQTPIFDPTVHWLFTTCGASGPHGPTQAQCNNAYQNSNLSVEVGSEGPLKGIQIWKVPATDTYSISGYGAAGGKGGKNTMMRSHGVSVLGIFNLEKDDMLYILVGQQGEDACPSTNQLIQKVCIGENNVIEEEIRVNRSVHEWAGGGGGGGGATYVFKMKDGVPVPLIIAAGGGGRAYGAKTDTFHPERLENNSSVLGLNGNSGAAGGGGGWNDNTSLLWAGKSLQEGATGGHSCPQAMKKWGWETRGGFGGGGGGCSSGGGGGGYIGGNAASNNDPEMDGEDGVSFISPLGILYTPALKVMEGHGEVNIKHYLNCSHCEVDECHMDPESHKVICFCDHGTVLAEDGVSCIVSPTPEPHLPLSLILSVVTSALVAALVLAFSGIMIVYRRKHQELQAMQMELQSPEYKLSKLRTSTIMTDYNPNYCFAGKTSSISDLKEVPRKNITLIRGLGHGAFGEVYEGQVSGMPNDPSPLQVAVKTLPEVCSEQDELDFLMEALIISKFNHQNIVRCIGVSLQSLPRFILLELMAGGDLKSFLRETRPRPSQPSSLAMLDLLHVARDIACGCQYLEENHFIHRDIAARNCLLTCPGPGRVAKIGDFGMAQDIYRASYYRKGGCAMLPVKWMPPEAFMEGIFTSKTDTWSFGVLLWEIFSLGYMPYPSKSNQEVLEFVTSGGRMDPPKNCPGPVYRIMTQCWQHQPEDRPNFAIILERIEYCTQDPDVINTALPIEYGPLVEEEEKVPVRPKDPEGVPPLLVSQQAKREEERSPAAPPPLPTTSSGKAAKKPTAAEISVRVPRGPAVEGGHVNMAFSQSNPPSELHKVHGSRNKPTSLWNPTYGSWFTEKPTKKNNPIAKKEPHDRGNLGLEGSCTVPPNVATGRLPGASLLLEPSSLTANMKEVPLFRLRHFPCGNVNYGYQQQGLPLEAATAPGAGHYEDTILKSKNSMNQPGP
EXPERIMENT DESCRIPTION: ALK enzymatic IC50, R1275Q
PARAMETER MEASURED: IC50 (nM)
Answers are plain numbers, in nM.

GET /values?item= COc1cc(N2CCC(N3CCN(C)CC3)CC2)ccc1Nc1nc2c(c(Nc3ccccc3S(=O)(=O)NC(C)C)n1)CCN2 [Conteltinib] &system= ALK R1275Q (Homo sapiens, UniProt Q9UM73, R1275Q) returns IC50: 1.2

====

EXPERIMENT DESCRIPTION: clinical
DETAILS: human, in vivo, single dose, PK lead-in phase of dose-escalation phase, 50 mg (n=2), mean
PARAMETER MEASURED: AUC(0-t) (ng·h/mL)
One number for each entry, in ng·h/mL.

Given item COc1cc(N2CCC(N3CCN(C)CC3)CC2)ccc1Nc1nc2c(c(Nc3ccccc3S(=O)(=O)NC(C)C)n1)CCN2 , the value recorded as its AUC(0-t) is 125

====

EXPERIMENT DESCRIPTION: clinical
DETAILS: human, in vivo, single dose, PK lead-in phase of dose-escalation phase, 300 mg (n=3), mean
PARAMETER MEASURED: AUC(0-t) (µg·h/mL)
One number for each entry, in µg·h/mL.

Given item COc1cc(N2CCC(N3CCN(C)CC3)CC2)ccc1Nc1nc2c(c(Nc3ccccc3S(=O)(=O)NC(C)C)n1)CCN2 , the value recorded as its AUC(0-t) is 4.34

====

EXPERIMENT DESCRIPTION: clinical
DETAILS: human, in vivo, cycle 1 day 28 of dose-escalation phase, 50 mg (n=2), mean; read-out: Tmax
PARAMETER MEASURED: Tmax
Number first, unit second.

Given item COc1cc(N2CCC(N3CCN(C)CC3)CC2)ccc1Nc1nc2c(c(Nc3ccccc3S(=O)(=O)NC(C)C)n1)CCN2 , the value recorded as its Tmax is 1.5 h

====

EXPERIMENT DESCRIPTION: clinical
DETAILS: human, in vivo, single dose, PK lead-in phase of dose-escalation phase, 600 mg (n=7), mean
PARAMETER MEASURED: AUC(0-t) (ng·h/mL)
One number for each entry, in ng·h/mL.

Given item COc1cc(N2CCC(N3CCN(C)CC3)CC2)ccc1Nc1nc2c(c(Nc3ccccc3S(=O)(=O)NC(C)C)n1)CCN2 , the value recorded as its AUC(0-t) is 9640
